test_description: calcein-AM signal in unstimulated myeloma cells – cell-based, calcein-AM fluorescence, 48 h, PK04 Diversity Set, profiling panel (AID 1166);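 also: cells grown under basal conditions without added stimulus; test concentration not given here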
measurement_context: RPMI8226 myeloma viability, higher = more signal
Hi there, I'd appreciate the recorded z-score for every entry that follows.

## Task Return reported z-score; argument: CCCC=C(CCC)[C@@H](NS(=O)(=O)c1ccc(Cl)cc1)c1ccc(C(=O)OC)cc1
## Result -0.595

## Task Return reported z-score; argument: CC[C@@H]1C=C(C(=O)O)[C@H](c2cccc3ccccc23)N1S(=O)(=O)c1ccc(C)cc1
## Result -0.392

## Task Return reported z-score; argument: COCCOC(=O)N1C(=O)[C@@]2(c3ccccc31)[C@H](C(N)=O)[C@H]1C(=O)O[C@H](c3ccccc3)[C@H](c3ccccc3)N1[C@@H]2c1ccc(O)cc1
## Result 0.248

## Task Return reported z-score; argument: O=C1C2C=CC(C(O)c3ccc4c(c3)OCO4)N(Nc3ccc([N+](=O)[O-])cc3)C2C(=O)N1c1ccccc1 (configuration not stated)
## Result -0.169

## Task Return reported z-score; argument: COCCOC(=O)N1C(=O)[C@@]2(c3cc(C#CC4(O)CCCCCC4)ccc31)[C@H](C(=O)Nc1nc3ccccc3s1)[C@H]1C(=O)O[C@H](c3ccccc3)[C@H](c3ccccc3)N1[C@@H]2c1ccc(OCCO)cc1
## Result -2.56

## Task Return reported z-score; argument: C#CCN1[C@@H](Cc2ccc(O)cc2)C(=O)O[C@H](Cc2ccccc2)[C@@H]1/C=C/C1CC1
## Result -3.96

## Task Return reported z-score; argument: C=CC[C@@]1(C(=O)N2CCCCC2)N=C(c2ccc(OCCCO)cc2)O[C@@H]1c1ccccc1N=[N+]=[N-]
## Result -2.71

## Task Return reported z-score; argument: O=C1O[C@@H](c2ccccc2)[C@@H](c2ccccc2)N2[C@@H](c3ccccc3OCCO)[C@]3(C(=O)Nc4ccccc43)[C@@H](C(=O)O)[C@H]12
## Result 0.0803

## Task Return reported z-score; argument: CC(C)=CCCC(C)=CC(O)C1C=CC2C(=O)N(c3ccccc3)C(=O)C2N1Nc1ccc(C(C)C)cc1 (configuration not stated)
## Result -0.589

## Task Return reported z-score; argument: COC(=O)c1c(CC[C@@H](CO)NC(=O)NCCc2c[nH]c3ccccc23)oc(C(=O)Cc2ccccc2)c1C(=O)OC
## Result 0.459

## Task Return reported z-score; argument: CC(C)C(=C=CC[C@H](O)c1ccc(CO)o1)CCO
## Result -0.2

## Task Return reported z-score; argument: C=CC[C@@]1(C(=O)N2CCCCC2)N=C(c2ccc(OCCCO)cc2)O[C@@H]1c1ccccc1CN=[N+]=[N-]
## Result -3.66

## Task Return reported z-score; argument: O=C(O)C1N=C(c2ccc(OCCCO)cc2)N(c2ccccc2)O1 (configuration not stated)
## Result -0.547

## Task Return reported z-score; argument: CCCC1(C(=O)OC)C=C2C(=C(c3ccccc3)C(=O)C2C)CN1 (configuration not stated)
## Result -1.14

## Task Return reported z-score; argument: [N-]=[N+]=Nc1ccccc1C[C@]1(C(=O)N2CCCCC2)COC(c2ccc(OCCCO)cc2)=N1
## Result -4.33

## Task Return reported z-score; argument: C[N+](C)(C)CCCC[C@@H]1NC(=O)[C@@H]2C[C@H](C(=O)NCCCCCN)[C@H](c3ccc(O)cc3)N2C1=O
## Result 0.828

## Task Return reported z-score; argument: CCOC(=O)C1=C[C@@H](C(C)C)N(S(=O)(=O)c2ccc(C)cc2)[C@H]1c1ccccc1F
## Result -1.08
